Reference for the values: patent US20250090699A1

Listed next: entries and their corresponding pIC50.
# target_or_system: human FAP (Homo sapiens, UniProt Q12884)
# Sequence (Q12884 26-760): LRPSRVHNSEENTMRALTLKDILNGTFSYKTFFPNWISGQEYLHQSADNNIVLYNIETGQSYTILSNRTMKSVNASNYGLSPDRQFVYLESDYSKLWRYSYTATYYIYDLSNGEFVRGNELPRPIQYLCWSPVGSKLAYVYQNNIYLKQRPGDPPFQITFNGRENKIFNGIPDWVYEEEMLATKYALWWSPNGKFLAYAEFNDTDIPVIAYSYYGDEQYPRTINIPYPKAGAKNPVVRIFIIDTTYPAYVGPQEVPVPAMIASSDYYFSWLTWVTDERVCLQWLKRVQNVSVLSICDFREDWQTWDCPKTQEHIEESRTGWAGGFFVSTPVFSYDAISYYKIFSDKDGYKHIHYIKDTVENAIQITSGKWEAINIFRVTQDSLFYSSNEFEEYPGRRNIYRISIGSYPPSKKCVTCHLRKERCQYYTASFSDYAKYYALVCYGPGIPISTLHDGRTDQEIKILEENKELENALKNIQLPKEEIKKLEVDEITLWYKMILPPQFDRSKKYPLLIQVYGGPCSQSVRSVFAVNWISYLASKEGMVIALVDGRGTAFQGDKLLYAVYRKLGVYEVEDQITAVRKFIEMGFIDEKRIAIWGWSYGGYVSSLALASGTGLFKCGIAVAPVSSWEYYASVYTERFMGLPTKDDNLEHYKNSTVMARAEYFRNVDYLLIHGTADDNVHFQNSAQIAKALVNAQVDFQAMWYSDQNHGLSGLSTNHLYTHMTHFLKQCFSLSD
Where a name gives a salt, the structure may show the parent alone. Non-standard residues stand in square brackets, D forms with d. Residues, ends and D or L forms follow the SMILES beside them. AEF = NCCOc1ccc(C[C@H](N)C(=O)O)cc1; NMeCha = CN[C@@H](CC1CCCCC1)C(=O)O; NMeF = CN[C@@H](Cc1ccccc1)C(=O)O; Ahp(2) = CCCCC[C@H](N)C(=O)O
Scale explanation: pIC50 corresponds to minus log10 of a concentration expressed in moles per litre.

Field request: pIC50 | item: CCCCC[C@@H]1NC(=O)[C@H](Cc2ccc(O)cc2)NC(=O)[C@H](CC2CCCCC2)N(C)C(=O)CNC(=O)[C@H](CCCCN)NC(=O)[C@H]2CCCN2C(=O)[C@H](CC(=O)O)NC(=O)[C@H](Cc2ccc(O)cc2)NC(=O)CNC(=O)[C@H](Cc2c[nH]c3ccccc23)NC1=O [Example A43, TFA salt] (cyclo([Ahp(2)]WGYD[dP]KG[NMeCha]Y)) 10.16

# lookup: pIC50 of CCCCC[C@@H]1NC(=O)[C@H](Cc2ccc(OCCN)cc2)NC(=O)[C@H](Cc2ccccc2)N(C)C(=O)CNC(=O)[C@@H]2CCCN2C(=O)[C@H]2CCCN2C(=O)[C@H](CC(=O)O)NC(=O)[C@H](Cc2ccc(O)cc2)NC(=O)CNC(=O)[C@H](Cc2c[nH]c3ccccc23)NC1=O [Example A32] (cyclo(G[NMeF][AEF][Ahp(2)]WGYD[dP]P)) 9.62

###

pIC50, human FAP (Homo sapiens, UniProt Q12884), per-entry values.
Starred links: 1 amine or outer side, 2 acyl side, 3 side chain; linkers in the order of their positions; H or OH if unused. Non-standard residues stand in square brackets, D forms with d. Residues, ends and D or L forms follow the SMILES beside them. Groups on a side chain read outwards from the residue. *: point of attachment. Nicotinoyl(6-NMe3+) = C[N+](C)(C)c1ccc(C(=O)*)cn1; Phe(4-CH2NH2) = NCc1ccc(C[C@H](N)C(=O)O)cc1; Piperazinyl(4-CH2COOH) = O=C(O)CN1CCN(*)CC1; NMeY = CN[C@@H](Cc1ccc(O)cc1)C(=O)O; NMeF = CN[C@@H](Cc1ccccc1)C(=O)O; Aoc(2) = CCCCCC[C@H](N)C(=O)O; Ahp(2) = CCCCC[C@H](N)C(=O)O; hSer = N[C@@H](CCO)C(=O)O; AEEA = NCCOCCOCC(=O)O; CO = O=C([*:1])[*:2]; Sar = CNCC(=O)O
Recall that pIC50 is obtained by taking minus log10 of the concentration measured in molar.

Worked cases, pIC50 given:
compound	pIC50
CCCCC[C@@H]1NC(=O)[C@H](Cc2ccc(O)cc2)NC(=O)[C@H](Cc2ccccc2)N(C)C(=O)CNC(=O)CNC(=O)[C@H]2CCCN2C(=O)[C@H](CC(=O)O)NC(=O)[C@H](Cc2ccc(OC)cc2)NC(=O)CNC(=O)[C@H](Cc2c[nH]c3ccccc23)NC1=O [Example A13] (cyclo([Ahp(2)]WGY(Me)D[dP]GG[NMeF]Y))	11.30
CCCCC[C@@H]1NC(=O)[C@H](Cc2ccc(O)cc2)NC(=O)[C@H](Cc2ccccc2)N(C)C(=O)CNC(=O)[C@H](CCO)NC(=O)[C@H]2CCCN2C(=O)[C@H](CC(=O)O)NC(=O)[C@H](Cc2ccc(O)cc2)NC(=O)CNC(=O)[C@H](Cc2c[nH]c3ccccc23)NC1=O [Example A42] (cyclo([Ahp(2)]WGYD[dP][hSer]G[NMeF]Y))	10.05
CCCCCC[C@@H]1NC(=O)[C@H](Cc2ccc(CNC(=O)COCCOCCNC(=O)c3ccc([N+](C)(C)C)nc3)cc2)NC(=O)[C@H](Cc2ccccc2)N(C)C(=O)CNC(=O)CNC(=O)[C@H]2CCCN2C(=O)[C@H](CC(=O)O)NC(=O)[C@H](CCCCNC(=O)N2CCN(CC(=O)O)CC2)NC(=O)CNC(=O)[C@H](Cc2c[nH]c3ccccc23)NC1=O [Example C57] (cyclo([Aoc(2)]WGK([CO-Piperazinyl(4-CH2COOH)])D[dP]GG[NMeF][Phe(4-CH2NH2)]([AEEA-Nicotinoyl(6-NMe3+)])))	11.22
CCCCC[C@@H]1NC(=O)[C@H](Cc2ccc(O)cc2)NC(=O)[C@H](Cc2ccccc2)N(C)C(=O)CNC(=O)CNC(=O)[C@H]2CCCN2C(=O)[C@H](CC(=O)O)NC(=O)[C@H](Cc2ccc(O)cc2)NC(=O)CNC(=O)[C@H](Cc2c[nH]c3ccccc23)NC1=O [Example A52] (cyclo([Ahp(2)]WGYD[dP]GG[NMeF]Y))	9.98

Given the entry CCCCC[C@@H]1NC(=O)[C@H](Cc2ccc(O)cc2)NC(=O)[C@H](Cc2ccccc2)N(C)C(=O)CNC(=O)CNC(=O)CN(C)C(=O)[C@H](CC(=O)O)NC(=O)[C@H](Cc2ccc(O)cc2)NC(=O)CNC(=O)[C@H](Cc2c[nH]c3ccccc23)NC1=O [Example A68] (cyclo([Ahp(2)]WGYD[Sar]GG[NMeF]Y)) , what pIC50 was observed with human FAP (Homo sapiens, UniProt Q12884)? 7.92

Lab request: please report pIC50 under test system human FAP (Homo sapiens, UniProt Q12884) for CCCCC[C@@H]1NC(=O)[C@H](Cc2ccc(O)cc2)NC(=O)[C@H](Cc2ccccc2)N(C)C(=O)CNC(=O)CNC(=O)[C@H]2CCCN2C(=O)[C@H](CC(=O)O)NC(=O)[C@H](Cc2ccc(O)cc2)N(C)C(=O)CNC(=O)[C@H](Cc2c[nH]c3ccccc23)NC1=O [Example A50] (cyclo([Ahp(2)]WG[NMeY]D[dP]GG[NMeF]Y)) 9.02

###

# target_or_system: mouse FAP (Mus musculus)
# Construct: biotinylated His, Avi tag, mouse FAP (26-761, FAP-M82Q5); His; Avi tag (biotinylated); purchased AcroBiosystems FAP-M82Q5
# Sequence (P97321 26-761): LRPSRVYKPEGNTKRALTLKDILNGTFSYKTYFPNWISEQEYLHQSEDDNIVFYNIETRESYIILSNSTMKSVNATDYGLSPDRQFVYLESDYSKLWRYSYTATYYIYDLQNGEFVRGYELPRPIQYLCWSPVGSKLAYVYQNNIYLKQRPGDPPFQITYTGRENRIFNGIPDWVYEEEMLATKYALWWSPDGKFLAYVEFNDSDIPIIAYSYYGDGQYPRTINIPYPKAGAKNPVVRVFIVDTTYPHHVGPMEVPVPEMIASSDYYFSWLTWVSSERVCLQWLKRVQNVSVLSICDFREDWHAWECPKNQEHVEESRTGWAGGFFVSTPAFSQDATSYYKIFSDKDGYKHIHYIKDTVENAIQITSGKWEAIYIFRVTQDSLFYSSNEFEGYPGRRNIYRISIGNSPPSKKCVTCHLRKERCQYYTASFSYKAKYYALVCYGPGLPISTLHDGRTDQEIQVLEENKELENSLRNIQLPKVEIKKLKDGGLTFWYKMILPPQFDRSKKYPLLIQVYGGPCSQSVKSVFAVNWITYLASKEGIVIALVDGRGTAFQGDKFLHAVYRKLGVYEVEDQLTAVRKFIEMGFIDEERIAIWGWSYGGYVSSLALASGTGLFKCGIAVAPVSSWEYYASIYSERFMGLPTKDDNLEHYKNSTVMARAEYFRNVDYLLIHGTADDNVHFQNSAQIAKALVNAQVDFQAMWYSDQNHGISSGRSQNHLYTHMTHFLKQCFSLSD
# run_description: Enzymatic FAP competition assay (Z-Gly-Pro-AMC fluorescence), mouse FAP
# Assay type: biochemical
# experimental_setup: read-out: m. FAP, Enz., IC50
Starred links: 1 amine or outer side, 2 acyl side, 3 side chain; linkers in the order of their positions; H or OH if unused. Non-standard residues stand in square brackets, D forms with d. *: point of attachment. F(4amPEG2NHDOTA-Lu) = lutetium complex of (S)-2,2',2''-(10-(1-(4-(2-amino-2-carboxyethyl)phenyl)-3,12-dioxo-5,8-dioxa-2,11-diazatridecan-13-yl)-1,4,7,10-tetraazacyclododecane-1,4,7-triyl)triacetic acid (Phe with 4-aminomethyl-PEG2-DOTA-Lu), O=C([O-])CN1CCN(CC(=O)[O-])CCN(CC(=O)NCCOCCOCC(=O)NCc2ccc(C[C@H](N[*:1])C(=O)[*:2])cc2)CCN(CC(=O)[O-])CC1.[Lu+3]; F4(amMeGlyDOTALu) = lutetium complex of (S)-2,2',2''-(10-(2-((2-((4-(2-amino-2-carboxyethyl)benzyl)amino)-2-oxoethyl)(methyl)amino)-2-oxoethyl)-1,4,7,10-tetraazacyclododecane-1,4,7-triyl)triacetic acid (Phe with 4-aminomethyl-N-methyl-Gly-D, CN(CC(=O)NCc1ccc(C[C@H](N[*:1])C(=O)[*:2])cc1)C(=O)CN1CCN(CC(=O)[O-])CCN(CC(=O)[O-])CCN(CC(=O)[O-])CC1.[Lu+3]; COpipzaa = 4-(carboxymethyl)piperazine-1-carbonyl, O=C(O)CN1CCN(C(=O)*)CC1; DOTA(Lu) = O=C1CN2CCN3CCN(CC(=O)*)CCN(CC2)CC(=O)[O][Lu]([O]1)[O]C(=O)C3; hS(Pr) = O-propyl-L-homoserine, CCCOCC[C@H](N[*:1])C(=O)[*:2]; NMeF = CN[C@@H](Cc1ccccc1)C(=O)O; Ahp(2) = CCCCC[C@H](N)C(=O)O
Label key: Met means IC50 under 0.06 nM; Not met means IC50 of 0.06 nM or more.

Reference set, count: 2
substance	target_or_system	assigned_category
Gly-Gly-NMe3PyA-F(4amPEG2NHDOTA-Lu)-hS(Pr)-W7N-Gly-K(COpipzaa)-Asp-D-Pro [Example C3]	mouse FAP (Mus musculus)	Met
Lys(DOTA-Lu)-Gly-NMePhe-Tyr-Ahp-Trp-Gly-Tyr-Asp-D-Pro (cyclo(K(DOTA(Lu))G[NMeF]Y[Ahp(2)]WGYD[dP]); also: Lu complex) [Example C22]	mouse FAP (Mus musculus)	Not met

Please let me know if Gly-Gly-NMePhe-F4(amMeGlyDOTALu)-Ahp-Trp-Gly-Tyr-Asp-D-Pro (cyclo(GG[NMeF][F4(amMeGlyDOTALu)][Ahp(2)]WGYD[dP]); also: Lu complex) [Example C8] shows IC50 below 0.06 nM. Met

Lab note: IC50 threshold 0.06 nM. Does this substance come in strictly under it? Gly-Gly-NMePhe-F(4amPEG2NHDOTA-Lu)-hS(Pr)-Trp-Gly-K(COpipzaa)-Asp-D-Pro (cyclo(GG[NMeF][F(4amPEG2NHDOTA-Lu)][hS(Pr)]WGK(COpipzaa)D[dP]); also: Lu complex) [Example C2] Met
